Provide the recorded MIC for the entries that follow.
test system: Candida parapsilosis; experiment: Antifungal activity against Candida parapsilosis ATCC 22019 cultured in YNB media after 24 hrs by broth microdilution method; format: functional; conditions: Lodderomyces parapsilosis, ATCC 22019, 24 h
Answers are plain numbers, in µg/mL.

Worked examples, 5 compounds total:
OC(Cn1cncn1)(Cn1cncn1)c1ccc(F)cc1F :: 0.25
C[C@@H]1[C@H](O)[C@@H](C)/C=C/C=C/C=C/C=C/C=C/C=C/C=C/[C@H](O[C@@H]2O[C@H](C)[C@@H](O)[C@H](N)[C@@H]2O)C[C@@H]2O[C@](O)(C[C@@H](O)C[C@@H](O)[C@H](O)CC[C@@H](O)C[C@@H](O)CC(=O)O[C@H]1C)C[C@H](O)[C@H]2C(=O)O :: 2.5
CCOc1ccccc1OS(=O)(=O)[N-]C(=O)Nc1nc(OC)cc(OC)n1.[Na+] :: 1.25
COc1cc(OC)nc(NC(=O)[N-]S(=O)(=O)Oc2ccccc2OCCI)n1.[Na+] :: 5
CCOC(=O)c1ccccc1OS(=O)(=O)NC(=O)Nc1nc(OC)cc(OC)n1 :: 1.25

Report MIC for each item below.
1. CCOC(=O)c1ccccc1OS(=O)(=O)[N-]C(=O)Nc1nc(OC)cc(OC)n1.[Na+]
2. CCOc1ccccc1OS(=O)(=O)NC(=O)Nc1nc(OC)cc(OC)n1

1. 1.25
2. 1.25

###

tested on: Candida albicans; assay: Antifungal activity against Candida albicans SC5314 cultured in YNB media after 24 hrs by broth microdilution method; format: functional; settings: SC5314, 24 h
PROPERTY_LABEL: MIC

Field: example entries. Status: answers known.
CCCOC(=O)c1ccccc1OS(=O)(=O)[N-]C(=O)Nc1nc(OC)cc(OC)n1.[Na+] :: > 100 µg/mL
COC(=O)c1ccccc1OS(=O)(=O)[N-]C(=O)Nc1nc(Br)cc(OC)n1.[Na+] :: > 100 µg/mL
Cc1cc(C)nc(NC(=O)[N-]S(=O)(=O)Oc2ccccc2C(=O)Oc2ccccc2)n1.[Na+] :: > 100 µg/mL

Take each entry in turn and give its MIC.
1. COc1cc(I)nc(NC(=O)[N-]S(=O)(=O)Oc2ccccc2OCCCl)n1.[Na+]
2. COc1cc(C)nc(NC(=O)[N-]S(=O)(=O)Oc2ccccc2C(=O)OCCI)n1.[Na+]

1: 10 µg/mL; 2: > 100 µg/mL

###

test system: Candida albicans; experiment: Antifungal activity against Candida albicans SC5314 cultured in YNB media after 24 hrs by broth microdilution method; assay type: functional; details: SC5314, 24 h
Could you please report measured MIC for the items listed next?

Example cases with answers are listed next.
COc1cc(I)nc(NC(=O)[N-]S(=O)(=O)Oc2ccccc2C(=O)OCCCl)n1.[Na+] :: > 100 µg/mL
COc1cc(OC)nc(NC(=O)[N-]S(=O)(=O)Oc2ccccc2C(=O)OCC(F)(F)F)n1.[Na+] :: 10 µg/mL
Cc1cc(C)nc(NC(=O)[N-]S(=O)(=O)Oc2ccc([N+](=O)[O-])cc2)n1.[Na+] :: > 100 µg/mL

Need MIC for each of these compounds.
1. COC(=O)c1ccccc1OS(=O)(=O)[N-]C(=O)Nc1nc(C)cc(Cl)n1.[Na+]
2. COc1cc(Br)nc(NC(=O)[N-]S(=O)(=O)Oc2ccccc2OCCCl)n1.[Na+]
3. CCOC(=O)c1ccccc1OS(=O)(=O)[N-]C(=O)Nc1nc(C)cc(OC)n1.[Na+]
4. Cc1cc(C)nc(NC(=O)[N-]S(=O)(=O)Oc2ccccc2C(=O)OCCCl)n1.[Na+]
5. COc1cc(Cl)nc(NC(=O)[N-]S(=O)(=O)Oc2ccccc2C(=O)OCC(F)(F)F)n1.[Na+]
6. CCOC(=O)c1ccccc1OS(=O)(=O)[N-]C(=O)Nc1nc(I)cc(OC)n1.[Na+]
7. Cc1cc(Cl)nc(NC(=O)[N-]S(=O)(=O)Oc2ccccc2OCCI)n1.[Na+]
8. CCOC(=O)c1ccc(OS(=O)(=O)[N-]C(=O)Nc2nc(C)cc(Cl)n2)cc1.[Na+]

1. > 100 µg/mL
2. > 100 µg/mL
3. 10 µg/mL
4. > 100 µg/mL
5. > 100 µg/mL
6. 10 µg/mL
7. > 100 µg/mL
8. > 100 µg/mL

Numbers sourced from ChEMBL document CHEMBL4382231.
